assay-notes: Elimination half life in rat at 3 mg/kg, iv
Format: ADME, organism-based
Set-up: dose 3 mg/kg, route intravenous
experimental-conditions: in vivo
quantity-name: half-life

{"columns": ["smiles-data", "quantity-name", "test-result"],
 "data": [
  ["O=C1c2cccc3c(NCCO)ccc(c23)C(=O)N1c1cccc(Br)c1", "half-life", "42 min"]
]}

###

Measured IC50 by item
assay-notes: Inhibition of HCV2b.2 NS5B Cdelta21 RNA dependent RNA polymerase
Parameters: species or system Hepacivirus hominis, 2b.2

{"columns": ["smiles-data", "censoring-sign", "IC50 (nM)"],
 "data": [
  ["CN(CCO)c1ccc2c3c(cccc13)C(=O)N(c1cccc(Br)c1)C2=O", "=", 1800],
  ["Nc1ccc2c3c(cccc13)C(=O)N(c1cccc(Br)c1)C2=O", "=", 300],
  ["O=C1c2cccc3c(NC4CCN(Cc5ccccc5)CC4)ccc(c23)C(=O)N1c1cccc(Br)c1", "=", 43],
  ["CC(C)N(c1cc(-c2ccccc2)sc1C(=O)O)C(=O)[C@H]1CC[C@H](C)CC1", ">", 10000],
  ["O=C1c2cccc3cccc(c23)C(=O)N1c1cccc(Br)c1", ">", 50000],
  ["OCCNc1ccc2c3c(cccc13)CN(c1cccc(Br)c1)C2", ">", 50000],
  ["CNCCNc1ccc2c3c(cccc13)C(=O)N(c1cccc(Br)c1)C2=O", "=", 400],
  ["CCNc1ccc2c3c(cccc13)C(=O)N(c1cccc(Br)c1)C2=O", "=", 185],
  ["COCCNc1ccc2c3c(cccc13)C(=O)N(c1cccc(Br)c1)C2=O", "=", 124],
  ["O=C1c2cccc3c(NCCO)ccc(c23)C(=O)N1c1ccccc1", ">", 50000],
  ["NS(=O)(=O)c1cccc(N2C(=O)c3cccc4c(NCCO)ccc(c34)C2=O)c1", ">", 50000],
  ["O=C1c2cccc3c(NC4CCNCC4)ccc(c23)C(=O)N1c1cccc(Br)c1", "=", 120]
]}
